Test: soluble fraction after stress (log2 fold change); higher = more stays soluble; pooled small domains, quantitative proteomics
Conditions: stress: pH 4
Here, each record is paired with measured soluble fraction (log2) data.
Simply state the number, no unit and no words.

>  <Biosequence>
HMEQIETIFLSAAPYARTHIIHLLETSELFRDKYLTIVETSNGLLIYTEDKNRLLGILNSLT

>  <Measurement Kind>
soluble fraction (log2)

>  <Data Value>
-1.24

$$$$

For the sequence shown here, HMIQMRVKVPKNIAGGSLMGAHHFVKSALARTNPGGSTSNYKIQATDGTPLTLGDLTARQYDEVLIISG , give the reported soluble fraction (log2).
-0.617

For the sequence shown here, HMEQNTKAYEQVRTLTDLLNQYRHEYYNLSAPSVSDQEYDRLFDALAALEKQTGIVMSNSPTQTVG , give the reported soluble fraction (log2).
-0.497

For the sequence shown here, HMSSQGQNTKTGTVTASALYVRSGAGTNYSQIGYLLKNTKVEIVGQTGSWYKIKFGSGTGYVSSKYIK , give the reported soluble fraction (log2).
0.0256
